- System: morningglory
- Experiment summary: Test C preemergence/postemergence greenhouse plant response rating 0 to 100
- Format: in vivo, Ipomoea hederacea
- Test settings: POSTEMERGENCE, 250 g/ha, 0 to 100 scale
- From the text: The compounds evaluated in this test were formulated in a non-phytoxic solvent and applied to the soil surface before plant seedlings emerged (preemergence application), to water that covered the soil surface (flood application), and to plants that were in the one-to-four leaf stage (postemergence application). A sandy loam soil was used for the preemergence and postemergence tests, while a silt loam soil was used in the flood test. […]
Please go through the items and note down their Plant response rating, Morningglory.

Here are 3 compounds together with their reported answers.
Compound	Readout label	Result
CCC(C)Oc1cc(-c2nn3c(c2Cl)CCCC3)c(F)cc1Cl (centres unmarked)	Plant response rating, Morningglory	95
C#CC(C)Oc1cc(-c2nn3c(c2Br)CCCC3)c(F)cc1Cl (centres unmarked)	Plant response rating, Morningglory	100
COC(=O)c1cc(-c2nn3c(c2Cl)CCCC3)c(F)cc1Cl	Plant response rating, Morningglory	100

List the reported Plant response rating, Morningglory of each compound below.
1. CC(C)OC(=O)c1cc(-c2nn3c(c2Cl)CCCC3)c(F)cc1Cl
2. COC(=O)C(C)Oc1cc(-c2nn3c(c2Cl)CCCC3)c(F)cc1Cl (centres unmarked)

100
100
